Experiment: gradient 5% acetonitrile 3 min, to 50% in 2 min, to 85% in 15 min, held 3 min, 100 µL/min
Conditions: column: Zorbax Extend-C18 2.1 x 50 mm; eluents: water / acetonitrile, 0.1% formic acid
Metric name: RP-LC retention time (s)

Solved entries:
| Compound | RP-LC retention time, s |
| --- | --- |
| O=C(c1cc(F)cc(F)c1)N1CCN(c2cc(-c3ccc(F)cc3)[nH]n2)CC1 | 837 |
| O=C(Nc1ccc2c(c1)OCCO2)c1cc(-c2ccncc2)n[nH]1 | 606 |
| O=C(C1CCN(Cc2cnn(-c3ccccc3)c2-n2cccc2)CC1)N1CCN(c2ccccc2)CC1 | 750 |
| CC(C)CCN1CCC(N2CCN(S(=O)(=O)c3ccc(F)cc3)CC2)C1=O (configuration not stated) | 662 |
| Cc1ccc(S(=O)(=O)N2CC=C(N)N2)cc1 | 684 |
| Cc1ccc(NC(=O)Cn2cnc3nc(N4CCCC(C(=O)NC(C)C)C4)sc3c2=O)cc1F (configuration not stated) | 739 |
| CCOc1ccccc1NS(=O)(=O)c1ccccc1-c1nc(-c2cccc(F)c2)no1 | 1280 |
| O=C(Nc1ccccc1)N1CCC(n2cnc3ccc(F)cc3c2=O)CC1 | 742 |

P. CSc1cccc(NC(=O)C(=O)NCC(c2ccc3c(c2)CCCN3C)N2CCCC2)c1 (configuration not stated)
Q. FC(F)(F)c1cccc(-c2noc(Cc3nnc(-c4ccccc4)o3)n2)c1
Of the pair P and Q , name the member with the lesser recorded RP-LC retention time. Select an item and report its label. P
(P: 640 s, Q: 1080 s)

P. CCN1CCN(S(=O)(=O)c2cc(-c3nnc(C4CCCC4)o3)co2)CC1
Q. CCOC(=O)c1cccc(NC(=O)C2CCCN(c3ccc(=O)n(-c4ccc(F)cc4)n3)C2)c1 (configuration not stated)
R. Cc1ccc(C2Cn3nnc(-c4nc(-c5cccc(Cl)c5)no4)c3CO2)c(C)c1 (configuration not stated)
Highest RP-LC retention time first, then in falling order down to the smallest. // respond by listing labels in the order requested R, Q, P
(R: 1400 s, Q: 933 s, P: 637 s)

* * *

Test: gradient 5% acetonitrile 3 min, to 50% in 2 min, to 85% in 15 min, held 3 min, 100 µL/min
Details: column: Zorbax Extend-C18 2.1 x 50 mm; eluents: water / acetonitrile, 0.1% formic acid
Metric name: RP-LC retention time (s)

| Compound | Units symbol | RP-LC retention time |
| --- | --- | --- |
| Cc1cc(OCC(=O)NCc2cccs2)nc(-c2ccc(F)cc2)n1 | s | 885 |
| CN1C(=O)CCc2cc(NC(=O)c3ccncc3)ccc21 | s | 579 |
| Cc1ccc(CNC(=O)C2CCCN(c3ccc(=O)n(-c4ccc(C)c(Cl)c4)n3)C2)cc1 (stereo not drawn) | s | 975 |

A. Cc1cc(N2CCN(C)CC2)nc2ccc(NC(=O)c3cccc([N+](=O)[O-])c3)cc12
B. Cn1nnc2cc(-c3noc(C4CC(=O)N(c5cccc(Cl)c5)C4)n3)ccc21 (stereo not drawn)
Of the pair A and B , name the member with the lesser recorded RP-LC retention time. Select an item and report its label. A
(A: 576 s, B: 864 s)

A. O=C(Cn1c(=O)n(-c2ccccc2)c2ncccc21)NCCCN1CCCC1
B. O=C(Nc1cccc(OCc2nnc(-c3ccc(F)cc3)o2)c1)C1CC(=O)N(c2ccccc2)C1 (stereo not drawn)
Just curious, which one has the larger RP-LC retention time reading, A or B ? Select an item and report its label. B
(B: 895 s, A: 586 s)
